Tested on: D. immitis L4 larvae
assay: Dirofilaria immitis, L4 Stage (DiL4) In Vitro Assay
Type: cell-based
assayContext: larval stage selectivity, ratio of DiMf MED to DiL4 MED

chemicalString: CC(C)C[C@H]1C(=O)O[C@H](Cc2ccc(Cc3ccc(C(F)F)nc3)cc2)C(=O)N(C)[C@@H](CC(C)C)C(=O)O[C@H](C)C(=O)N(C)[C@@H](CC(C)C)C(=O)O[C@H](Cc2ccc(Cc3ccc(C(F)F)nc3)cc2)C(=O)N(C)[C@@H](CC(C)C)C(=O)O[C@H](C)C(=O)N1C
DiMf/DiL4: 100
//
chemicalString: COc1cc(C)c(Cc2ccc(C[C@H]3OC(=O)[C@H](CC(C)C)N(C)C(=O)[C@@H](C)OC(=O)[C@H](CC(C)C)N(C)C(=O)[C@@H](Cc4ccccc4)OC(=O)[C@H](CC(C)C)N(C)C(=O)[C@@H](C)OC(=O)[C@H](CC(C)C)N(C)C3=O)cc2)cn1
DiMf/DiL4: 15
//
chemicalString: CC(C)C[C@H]1C(=O)O[C@H](Cc2ccc(Cc3occc3C#N)cc2)C(=O)N(C)[C@@H](CC(C)C)C(=O)O[C@H](C)C(=O)N(C)[C@@H](CC(C)C)C(=O)O[C@H](Cc2ccccc2)C(=O)N(C)[C@@H](CC(C)C)C(=O)O[C@H](C)C(=O)N1C
DiMf/DiL4: 2.5
//
chemicalString: Cc1cc(F)ncc1Cc1ccc(C[C@H]2OC(=O)[C@H](CC(C)C)N(C)C(=O)[C@@H](C)OC(=O)[C@H](CC(C)C)N(C)C(=O)[C@@H](Cc3ccc(Cc4cnc(F)cc4C)cc3)OC(=O)[C@H](CC(C)C)N(C)C(=O)[C@@H](C)OC(=O)[C@H](CC(C)C)N(C)C2=O)cc1
DiMf/DiL4: 33.3
